# Run Parameters: in 2-pentanone, 308.05 K
Metric Name: solubility (mole fraction)

Short answer for CCCCCCCC(=O)NCC(=O)O : solubility (mole fraction) was 0.0431

====

# Run Parameters: in n-propanol, 303.15 K
Metric Name: solubility (mole fraction)
Please give the numeric answer without any surrounding text.

Just so you know, measured solubility (mole fraction) for CCCCCCCC(=O)NCC(=O)O came out at 0.137

====

# Run Parameters: in n-butanol, 283.15 K
Metric Name: solubility (mole fraction)
Respond using a number only.

solubility (mole fraction) in this record for CCCCCCCC(=O)NCC(=O)O : 0.0425

====

# Run Parameters: in ethyl acetate, 317.65 K
Metric Name: solubility (mole fraction)

Sample CCCCCCCC(=O)NCC(=O)O ; solubility (mole fraction) observed: 0.0389

====

# Run Parameters: in cyclopentanone, 293.05 K
Metric Name: solubility (mole fraction)
Just the number, please.

// solubility (mole fraction) value for CCCCCCCC(=O)NCC(=O)O : 0.0464

====

# Run Parameters: in 2-butanone, 298.15 K
Metric Name: solubility (mole fraction)
Response field accepts a number only; no unit should be typed.

In plain terms, CCCCCCCC(=O)NCC(=O)O has a documented solubility (mole fraction) of 0.0379

====

# Run Parameters: in isopropanol, 317.65 K
Metric Name: solubility (mole fraction)
I only need the number, thanks.

Measured solubility (mole fraction), CCCCCCCC(=O)NCC(=O)O : 0.0895

====

# Run Parameters: in 2-pentanone, 313.25 K
Metric Name: solubility (mole fraction)
Lab note: jot the number down without any unit.

Noted for CCCCCCCC(=O)NCC(=O)O : its solubility (mole fraction) reads 0.0552

====

# Run Parameters: in 2-butanone, 293.05 K
Metric Name: solubility (mole fraction)
Would you mind answering with just the numeric figure?

Entry CCCCCCCC(=O)NCC(=O)O — recorded solubility (mole fraction) = 0.0304

====

# Run Parameters: in 2-butanone, 308.05 K
Metric Name: solubility (mole fraction)

solubility (mole fraction) for CCCCCCCC(=O)NCC(=O)O is 0.0561

====

# Run Parameters: in isobutanol, 288.35 K
Metric Name: solubility (mole fraction)
Just the number.

Sample CCCCCCCC(=O)NCC(=O)O ; solubility (mole fraction) observed: 0.0412

====

# Run Parameters: in 2-butanone, 303.15 K
Metric Name: solubility (mole fraction)
Just the number, please, no unit after it.

Consider CCCCCCCC(=O)NCC(=O)O . Its measured solubility (mole fraction) is 0.0457

====

# Run Parameters: in cyclohexanone, 283.15 K
Metric Name: solubility (mole fraction)
// return a plain number; no unit text

GET /value?item= CCCCCCCC(=O)NCC(=O)O &field=solubility (mole fraction) returns 0.0214

====

# Run Parameters: in cyclopentanone, 323.15 K
Metric Name: solubility (mole fraction)
Form field (numeric): enter value without unit.

For record CCCCCCCC(=O)NCC(=O)O the listed solubility (mole fraction) is 0.203

====

# Run Parameters: in n-propanol, 313.25 K
Metric Name: solubility (mole fraction)
Please give the numeric answer without any surrounding text.

Per the record, CCCCCCCC(=O)NCC(=O)O has solubility (mole fraction) of 0.251

====

# Run Parameters: in ethanol, 303.15 K
Metric Name: solubility (mole fraction)
Lab note: jot the number down without any unit.

Per the record, CCCCCCCC(=O)NCC(=O)O has solubility (mole fraction) of 0.119
